Below, each entry is listed alongside its reported EC50.
Test system: Ileum
Assay: Ex vivo spasmolytic activity in ACh-induced contractions in Sprague-Dawley rat ileum incubated for 5 mins
Format: functional, tissue-based
Outcome measure: EC50 (nM)

>>> numeric_readout("COc1c2cc(c(O[C@@H]3O[C@H](CO)[C@@H](O)[C@H](O)[C@H]3O)c1OC)CCCC[C@@H](OC(C)=O)CCc1ccc(O)c-2c1")
2800
>>> numeric_readout("COc1cc2cc(c1OC)-c1cc(ccc1O)CCC(=O)CCCC2")
5000
>>> numeric_readout("COc1c2cc(c(O)c1OC)CCCCC(=O)CCc1ccc(O)c-2c1")
2900
>>> numeric_readout("COc1c2cc(c(O)c1OC)CCCC[C@@H](O)CCc1ccc(O)c-2c1")
2900
>>> numeric_readout("COc1c2ccc(c1O)CCCCC(=O)CCc1ccc(O)c(c1)O2")
3800

----------
Tested on: Ileum
Experiment: Ex vivo spasmolytic activity in ACh-induced contractions in Sprague-Dawley rat ileum incubated for 5 mins
Assay type: functional, tissue-based
pEC50: −log10 of the molar value.
Outcome measure: pEC50

>>> numeric_readout("COc1c2cc(c(O[C@@H]3O[C@H](CO)[C@@H](O)[C@H](O)[C@H]3O)c1OC)CCCC[C@H](O)CCc1ccc(O)c-2c1")
5.62
>>> numeric_readout("COc1c2cc(c(O)c1OC)CCCC(=O)[C@@H](O)Cc1ccc(O)c-2c1")
5.29
>>> numeric_readout("COc1c2cc(c(O[C@@H]3O[C@H](CO)[C@@H](O)[C@H](O)[C@H]3O)c1OC)CCCCC(=O)[C@@H](O)Cc1ccc(O)c-2c1")
5.62
>>> numeric_readout("COc1c2cc(c(OC)c1OC)-c1cc(ccc1O)C[C@@H](O)[C@@H](O)CCCC2")
5.55
